Provenance of the data: patent US20060286066A1

- test-target: T1, Biotinylated human TNFRI (human, UniProt P19438 30-211, limits assumed, biotinylated (approx 1 biotin per molecule))
- T1 sequence (looked up): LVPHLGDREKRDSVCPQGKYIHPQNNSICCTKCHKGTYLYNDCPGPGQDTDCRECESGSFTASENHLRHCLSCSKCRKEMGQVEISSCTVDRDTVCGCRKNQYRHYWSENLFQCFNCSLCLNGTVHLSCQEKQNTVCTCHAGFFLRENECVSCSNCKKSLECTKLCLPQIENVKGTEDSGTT
- test-protocol: SPR (Biacore), biotinylated human TNFRI on streptavidin chip, dAb injected
Would you mind telling me the reported kon of each entry?
Answer in M⁻¹ s⁻¹, number only, no unit symbol.

Any idea what its kon is? The binder is TAR210-27 20K MAL PEG (other, 20K MAL-PEG on the C-terminal Cys (Ser120cys), For the limits of the entry see m36) VH: ASTEVQLLESGGGLVQPGGSLRLSCAASGFTFEWYWMGWVRQAPGKGLEWVSAISGSGGSTYYADSVKGRFTISRDNSKNTLYLQMNSLRAEDAAVYYCAKVKLGGGPNFGYRGQGTLVTVSC
79900

Check TAR2-10-27 Ser120cys blocked (other, C-terminal Cys (Ser120cys) blocked with N-ethylmaleimide, TAR2-10-27 cys; the entry already carries Ser120cys) VH: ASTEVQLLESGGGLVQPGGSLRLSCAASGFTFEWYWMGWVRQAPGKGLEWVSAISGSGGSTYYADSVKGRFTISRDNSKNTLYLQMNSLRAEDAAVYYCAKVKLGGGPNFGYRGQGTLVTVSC too.
577000

Check TAR210-27 2 × 10K MAL PEG (other, 2 × 10K MAL-PEG on the C-terminal Cys (Ser120cys), For the limits of the entry see m36) VH: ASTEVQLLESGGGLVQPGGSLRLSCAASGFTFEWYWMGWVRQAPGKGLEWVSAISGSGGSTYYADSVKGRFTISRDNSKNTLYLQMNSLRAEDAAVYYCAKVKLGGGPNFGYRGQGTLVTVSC too.
120000

Check TAR210-27 5K MAL PEG (other, 5K MAL-PEG on the C-terminal Cys (Ser120cys), For the limits of the entry see m36) VH: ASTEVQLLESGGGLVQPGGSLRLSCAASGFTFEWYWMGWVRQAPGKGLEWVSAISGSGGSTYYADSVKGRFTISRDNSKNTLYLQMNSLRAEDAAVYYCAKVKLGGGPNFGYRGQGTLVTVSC too.
90000

Check TAR210-27 2 × 20K MAL PEG (other, 2 × 20K (40K branched) MAL-PEG on the C-terminal Cys (Ser120cys), For the limits of the entry see m36; also called 40K PEGylated monomer (TAR2-10-27)) VH: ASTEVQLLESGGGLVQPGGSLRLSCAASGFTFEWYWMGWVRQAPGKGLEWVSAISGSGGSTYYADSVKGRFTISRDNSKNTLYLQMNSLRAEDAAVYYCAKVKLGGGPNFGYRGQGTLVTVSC too.
74700

Check TAR2-10-27 Ser120cys 30K MAL PEG (other, 30K MAL-PEG on the C-terminal Cys (Ser120cys), TAR2-10-27 cys; For the limits of the entry see m36; also called TAR210-27 30K MAL PEG) VH: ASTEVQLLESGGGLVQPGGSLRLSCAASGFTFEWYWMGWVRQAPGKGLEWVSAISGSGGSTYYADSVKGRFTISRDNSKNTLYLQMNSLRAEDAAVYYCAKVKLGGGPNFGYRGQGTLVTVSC too.
83400
